- Target or system: T1, His6-PP1α_(7-330) H248N (UniProt P62136 7-330, H248N)
- T1 construct: Protein Phosphatase 1 alpha (PP1α), residues 7-330, H248N; also called PP1_(7-330) H248N; source: bacterial expression (E. coli) as previously described, purified (Ni-NTA, SEC)
- T1 sequence (P62136 7-330 H248N): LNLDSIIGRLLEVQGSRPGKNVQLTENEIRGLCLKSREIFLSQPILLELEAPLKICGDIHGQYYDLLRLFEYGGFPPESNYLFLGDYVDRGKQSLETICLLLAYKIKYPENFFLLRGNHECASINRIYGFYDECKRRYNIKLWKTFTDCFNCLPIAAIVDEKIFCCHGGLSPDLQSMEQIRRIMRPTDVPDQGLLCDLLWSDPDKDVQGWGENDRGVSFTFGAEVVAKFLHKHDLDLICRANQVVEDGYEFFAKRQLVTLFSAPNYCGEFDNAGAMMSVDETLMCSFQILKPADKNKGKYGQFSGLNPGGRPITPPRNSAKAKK
- Test protocol: SPR; His6-PP1 captured on a Ni-NTA sensorchip (NiHC200M), I3 variants injected; 25 °C; 20 mM Tris pH 8.0, 500 mM NaCl, 1 mM MnCl2, 0.5 mM TCEP, 0.05% Tween-20; one-to-one one state or one-to-one two state model
- Test settings: both partners purified
pKd: −log10 of the molar value.
Measure name: pKd

>>> data_value("SLTIKLRKRKPEKKVEWTSDTVDNEHMGRRSSKCCCIYEKPR (domain or fragment, human, UniProt O60927 27-68, looked up, PPP1R11), human, residues 27-68; also called WT I3_(27-68); source: E. coli BL21 (DE3), purified (Ni-NTA, TEV, heat 95 °C, SEC); not shown: His6, N-terminal, cleaved; MBP, N-terminal, cleaved) [I3_(27-68) (I3 PP1 interaction domain)]")
8.18
